System: BT-549 breast
Assay: NCI-60 one-dose screen, 48 h (100 = growth as untreated, 0 = no growth, -100 = all killed)
Details: 10 µM unless noted
Experimental: Growth inhibition of the BT-549 human tumor cell line is measured as a screen for anti-cancer activity. Cells are grown in 96 well plates and exposed to the test compound for 48 hours. Compounds are tested at a single concentration, which is 10^-5 M for most compounds. The reported endpoint is percent growth (GI% or GIPRCNT), where numbers from 0 - 100% represent growth inhibition, and numbers from -100% - 0 represent cell death. For example, a value of 40 represents 60% growth inhibition. […]
About 83,000 compounds went through this panel and 20% of them were active in at least one assay; those are over-represented in the sample as a whole.
Classes by growth: bin 1 = under 70%, bin 2 = from 70% up to 90%, bin 3 = 90% and over

Category of CCCCCCn1c(=N)n(CC(O)COc2cccc(C)c2)c2ccccc21 (stereo unspecified) , please.
bin 1

Just checking, what class would you give OC(CNC1CCCCC1)Cn1c2ccc(I)cc2c2cc(I)ccc21 (stereo unspecified) here?
bin 2

Into which category would you place NC1C(N)C(N)C1N (stereo unspecified) ?
bin 3

Which band does COc1ccc(-c2cn[nH]c2-c2ccc(OC)c(O)c2)cc1 fall in?
bin 2

Please indicate the class for Cc1ccc(CN2CCC(C(=O)Nc3ccc(-c4cc5ccccc5[nH]4)cc3)CC2)o1 based on its growth.
bin 2

Entry COc1ccc(-c2nc(-c3ccccn3)c(-c3ccccn3)n2CC(C)C)cc1OC1CCCC1 belongs to which category?
bin 1

Sort COC(=O)c1cc2c(n1Cc1ccccc1)-c1oncc1CCC2 into one of the categories.
bin 2

Any idea which band CN1C(=O)N(C)C2C1NN=c1s/c(=C\c3ccc([N+](=O)[O-])cc3)c(=O)n12 (stereo unspecified) is in?
bin 1

Band of CCC(C)(C)C(=O)O[C@H]1C[C@@H](C)C=C2C=C[C@H](C)[C@H](CC[C@@H]3CC=CC(=O)O3)[C@H]21 ?
bin 3

---

Assignment: determine reported growth for the given compounds.
system: NCI-H522 lung; assay: NCI-60 one-dose screen, 48 h (100 = growth as untreated, 0 = no growth, -100 = all killed); conditions: 10 µM unless noted
Compounds without any hit were thinned out: in the full panel of roughly 83,000, 20% have a hit.
Report as a plain number; the unit % is understood.

For reference, reported growth for O=C(Nc1ccc(C23CC4CC(CC(c5ccccc5)(C4)C2)C3)cc1)c1cccs1 stands at 59.9

// field: growth; key: COc1cc(C(=O)Nc2ccc(-c3nc4ccccc4[nH]3)cc2)cc(OC)c1OC ; value = 25

For this compound ( O=C(Nc1ccc(F)cc1F)c1cc(I)ccc1O ), measured growth is -12.4

Record summary for O=c1oc2ccc(Cl)cc2c(=O)n1-c1cc(C(F)(F)F)cc(C(F)(F)F)c1 : reported growth = -14.3

response.value for Cn1c2c(c(=O)[nH]c1=O)NC1=C(C(=O)c3ccccc31)C1(C=C(O)c3ccccc31)N2 (stereo unspecified) (field: growth) = 99.9

Lookup result for CCOC(=O)c1cc2c(n1Cc1cc(OC)c(OC)c(OC)c1)-c1oncc1CCC2 ; measured growth: 5.14

For COc1cc(-c2c3c(cn2S(=O)(=O)c2ccccc2)-c2nc(N)sc2CC3)cc(OC)c1OC the compound record lists growth as 19.9

GET /value?item= O=C(Nc1ccsc1C(=O)NC1CCCCC1)c1ccc(F)cc1 &field=growth returns 108

// CN(C)CCNc1cc(-c2ccccc2)nc2ccccc12 : growth value = -90.6

Entry CCCC(c1nnnn1C1CCCCC1)N1CCN(C(=O)c2ccco2)CC1 (stereo unspecified) — recorded growth = 62.5

Consider COC(=O)C1(C)COP(=O)(Nc2ccc(OC)cc2)OC1 (stereo unspecified) . Its measured growth is 111
